From: patent US8906925B2

# assay_target: human recombinant adrenergic α2B receptor (Homo sapiens)
# Construct: expressed in transfected cells; host or cells: Chinese hamster ovary (CHO-K1) cells
# Sequence (P18089 whole entry): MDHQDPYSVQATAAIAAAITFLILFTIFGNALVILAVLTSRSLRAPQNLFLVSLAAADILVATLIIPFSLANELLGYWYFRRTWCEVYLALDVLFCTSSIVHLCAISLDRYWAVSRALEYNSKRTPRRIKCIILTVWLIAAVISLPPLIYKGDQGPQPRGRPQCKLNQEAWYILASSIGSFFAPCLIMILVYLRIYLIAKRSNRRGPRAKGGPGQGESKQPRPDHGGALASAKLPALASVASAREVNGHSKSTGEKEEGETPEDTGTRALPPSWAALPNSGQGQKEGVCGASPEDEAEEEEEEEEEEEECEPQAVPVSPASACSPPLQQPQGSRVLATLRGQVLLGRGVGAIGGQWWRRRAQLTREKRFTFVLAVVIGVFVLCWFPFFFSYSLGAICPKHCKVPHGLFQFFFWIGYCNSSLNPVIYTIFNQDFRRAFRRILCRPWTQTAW
# experiment: Adrenergic α2B radioligand binding ([3H]Rauwolscine)
# test_parameters: percent inhibition of specific binding; compound at 1 μM; read-out: Inhibition of ligand binding, Adrenergic α2B
Listing of recorded inhibition at 1 µM by entry.
Give your result as the value with the unit written after it.

Consider the reported inhibition at 1 µM for these molecules:
In [3]: df
Out[3]:
                                   molecule  observed_measurement
0  COc1ccc(C(C)(O)Cn2c3c(c4cc(C)ccc42)CN(C)CC3)cc1 (stereo not drawn)                   88%
1  COc1ccc(/C(C)=C/n2c3c(c4cc(Cl)ccc42)CN(C)CC3)cc1                  103%
2  CC(=Cn1c2c(c3cc(Cl)ccc31)CN(C)CC2)c1ccc(Cl)cc1Cl (stereo in doubt)                   90%
3  Cc1ccc2c(c1)c1c(n2CC(O)c2ccc(F)cc2)CCN(C)C1 (stereo not drawn)                  104%

Entry COc1ccc(C(C)(O)Cn2c3c(c4cc(Cl)ccc42)CN(C)CC3)cc1 (stereo not drawn) ; inhibition at 1 µM = 108%

Entry CCC(O)(Cn1c2c(c3cc(C)ccc31)CN(C)CC2)c1ccc(F)cc1 (stereo not drawn) ; inhibition at 1 µM = 96%

Entry COc1ccc(/C(C)=C/n2c3c(c4cc(Cl)ccc42)CN(C)CC3)cc1F ; inhibition at 1 µM = 108%

Entry C=C(Cn1c2c(c3cc(C)ccc31)CN(C)CC2)c1ccc(F)cc1 ; inhibition at 1 µM = 118%

Entry CN1CCc2c(c3cc(Cl)ccc3n2CC(C)(O)c2cccnc2)C1 (stereo not drawn) ; inhibition at 1 µM = 107%

Entry CCC(O)(Cn1c2c(c3cc(Cl)ccc31)CN(C)CC2)c1ccc(F)cc1 (stereo not drawn) ; inhibition at 1 µM = 87%

Entry C/C=C/C(=C\n1c2c(c3cc(Cl)ccc31)CN(C)CC2)c1ccc(F)cc1 ; inhibition at 1 µM = 86%

Entry C/C(=C/n1c2c(c3cc(Cl)ccc31)CN(C)CC2)c1ccccc1F ; inhibition at 1 µM = 105%

Entry CCOC(=O)/C=C(/Cn1c2c(c3cc(C)ccc31)CN(C)CC2)c1ccccc1 ; inhibition at 1 µM = 111%

Entry CN1CCc2c(c3cc(Cl)ccc3n2CC(O)(c2ccc(F)cc2)C2CCC2)C1 (stereo not drawn) ; inhibition at 1 µM = 94%

Entry C/C(=C\n1c2c(c3ccccc31)CN(C)CC2)c1ccc(F)cc1 ; inhibition at 1 µM = 101%

Entry CN1CCc2c(c3cc(Cl)ccc3n2CC(O)c2cccnc2)C1 (stereo not drawn) ; inhibition at 1 µM = 112%

Entry COc1ccc(C(C)(O)Cn2c3c(c4cc(Cl)ccc42)CN(C)CC3)cc1F (stereo not drawn) ; inhibition at 1 µM = 95%

Entry C/C(=C\n1c2c(c3cc(Cl)ccc31)CN(C)CC2)c1ccc(F)cc1 ; inhibition at 1 µM = 121%

Entry C/C(=C\n1c2c(c3cc(Cl)ccc31)CN(C)CC2)c1ccc(Cl)cc1 ; inhibition at 1 µM = 97%
